test: Acid selection: salt formation of compound 1 with acids; assay type: physicochemical; details: Solvent Et2O

| compound | Result (salt formation with compound 1) |
| --- | --- |
| Cl [Hydrochloric] | Decomposition |
| O=C(O)c1ccccc1O | No salt formed |
| O=C(O)/C=C\C(=O)O | No salt formed |
| CS(=O)(=O)O | Decomposition |
| O=C(O)CC(O)(CC(=O)O)C(=O)O | No salt formed |
| O=C(O)c1ccccc1 | No salt formed |
| CC(=O)O | No salt formed |

====

experiment: Acid selection: salt formation of compound 1 with acids; type: physicochemical; conditions: Solvent EtOAc
measure.name: Result (salt formation with compound 1)

| compound | measure.name | recorded.result |
| --- | --- | --- |
| O=C(O)c1ccccc1 | Result (salt formation with compound 1) | No salt formed |
| O=C(O)CC(O)(CC(=O)O)C(=O)O | Result (salt formation with compound 1) | No salt formed |
| NC(=O)CCC(=O)O | Result (salt formation with compound 1) | No salt formed |
| O=C(O)/C=C\C(=O)O | Result (salt formation with compound 1) | No salt formed |
| Cl [Hydrochloric] | Result (salt formation with compound 1) | Decomposition |
| CS(=O)(=O)O | Result (salt formation with compound 1) | Decomposition |
| O=C(O)c1ccccc1O | Result (salt formation with compound 1) | No salt formed |
| O=C(O)c1cccc(O)c1 [3-Hydroxybenzoic] | Result (salt formation with compound 1) | No salt formed |
| O=C(O)[C@@H](O)[C@H](O)C(=O)O | Result (salt formation with compound 1) | No salt formed |
